# Tested on: SF-268
# ASSAY OVERVIEW: Growth inhibition of human SF268 cells at 10 uM after 48 hrs by SRB assay relative to control
# Type: functional
# SETTINGS: SF-268, 48 h, read-out: GI
Overview of reported inhibition of growth at 10 µM across a group of compounds:
QUANTITY NAME: inhibition of growth at 10 µM (%)

1. COc1ccc(NC(=O)c2cccc(-c3cc(=O)c4c(O)c(OC)c(OC)cc4o3)c2)cc1 | 45.4
2. COc1cc2oc(-c3cccc(C(=O)Nc4ccccc4)c3)cc(=O)c2c(OC)c1OC | 16.7
3. COc1cc2oc(-c3cccc(NC(=O)c4ccc5c(c4)OCO5)c3)cc(=O)c2c(OC)c1OC | 51.9
4. COc1cccc(NC(=O)c2cccc(-c3cc(=O)c4c(OC)c(OC)c(OC)cc4o3)c2)c1 | 36.9

Provenance of the data: ChEMBL document CHEMBL4325889
